test system: 786-0 renal; test: NCI-60 one-dose screen, 48 h (100 = growth as untreated, 0 = no growth, -100 = all killed); conditions: 10 µM unless noted
Compounds without any hit were thinned out: in the full panel of roughly 83,000, 20% have a hit.
Cut-off 80% on growth: below means true, at or above means false.

{"compound": "O=C(CC1(O)C(=O)N(Cc2ccccc2)c2ccc(F)cc21)c1ccc(C(=O)NCC2CCC3(CC2)OOC2(CCCCC2)OO3)cc1 (centres undefined)", "label": "true"}
{"compound": "Nc1c(F)cc(-c2nc3cc(F)ccc3[se]2)cc1Br", "label": "false"}
{"compound": "N#C[S-].[Au+].c1ccc(CN2[CH-]N(Cc3ccccc3)C(c3ccccc3)=C2c2ccccc2)cc1", "label": "true"}
{"compound": "CCCCCCCC[n+]1ccc2ccccc2c1", "label": "true"}
{"compound": "O=C(N/N=C/c1ccc(N(CCCl)CCCl)cc1)c1cccc2ccccc12", "label": "true"}
{"compound": "O=C1C(Cl)=C(N2CCOCC2)C(=O)c2ccccc21", "label": "false"}
{"compound": "COc1cc([C@@H]2c3cc4c(cc3[C@H](OC(C)=O)[C@H]3COC(=O)[C@H]23)OCO4)cc(OC)c1OC", "label": "true"}
{"compound": "C=CCCCCCCCCC(=O)[O-].C=CCCCCCCCCC(=O)[O-].[Zn+2]", "label": "false"}
{"compound": "Cc1c2cc(Cl)c3ccccc3c2c[n+]2ccccc12", "label": "true"}
{"compound": "Cc1ccc(C(=O)NCCCOc2ccc(N)cc2Cl)cc1S(=O)(=O)F", "label": "false"}
{"compound": "ClC1=C(Cl)C(Cl)(C2(Cl)C(Cl)=C(Cl)C(Cl)=C2Cl)C(Cl)=C1Cl", "label": "true"}
{"compound": "C[C@@]12CC=C3c4nc(Nc5cccc(O)c5)sc4CC[C@]3(C)[C@H]1CC[C@]1(C)C(=O)CC[C@@H]21", "label": "true"}
{"compound": "c1ccc(Nc2nc(-c3ccccc3)c[se]2)cc1", "label": "false"}
{"compound": "COc1ccc(/C=C\\c2cc(OC)c(OC)c(OC)c2)cc1OCC(=O)Nc1nc2ccc(F)cc2s1", "label": "true"}
{"compound": "CN(C)CC(C(=O)Cc1ccccc1)c1ccccc1 (centres undefined)", "label": "true"}
{"compound": "CCCCCCCOC(C(=O)OCCN(CC)CC)(c1ccccc1)c1ccccc1", "label": "true"}
{"compound": "Clc1ccc(CSC(Cn2ccnc2)c2ccc(Cl)cc2Cl)cc1 (centres undefined)", "label": "true"}
{"compound": "COC(=O)[C@H](Cc1c[nH]c2ccccc12)NC(=O)[C@@H](OC)[C@@H]1Cc2cc3cc(OC4CC(OC5CC(O)C(O)C(C)O5)C(O)C(C)O4)c(C)c(O)c3c(O)c2C(=O)[C@H]1OC1CC(OC2CC(OC3CC(C)(O)C(O)C(C)O3)C(O)C(C)O2)C(O)C(C)O1 (some centres undefined)", "label": "true"}
{"compound": "Cc1sc2c(c1C)C(c1ccc(Cl)cc1)=N[C@@H](CC(=O)OC(C)(C)C)c1nnc(C)n1-2", "label": "true"}
